Biological target: Voltage-gated inwardly rectifying potassium channel KCNH2 (Homo sapiens) (UniProt Q12809)
Sequence (Q12809 whole entry, looked up): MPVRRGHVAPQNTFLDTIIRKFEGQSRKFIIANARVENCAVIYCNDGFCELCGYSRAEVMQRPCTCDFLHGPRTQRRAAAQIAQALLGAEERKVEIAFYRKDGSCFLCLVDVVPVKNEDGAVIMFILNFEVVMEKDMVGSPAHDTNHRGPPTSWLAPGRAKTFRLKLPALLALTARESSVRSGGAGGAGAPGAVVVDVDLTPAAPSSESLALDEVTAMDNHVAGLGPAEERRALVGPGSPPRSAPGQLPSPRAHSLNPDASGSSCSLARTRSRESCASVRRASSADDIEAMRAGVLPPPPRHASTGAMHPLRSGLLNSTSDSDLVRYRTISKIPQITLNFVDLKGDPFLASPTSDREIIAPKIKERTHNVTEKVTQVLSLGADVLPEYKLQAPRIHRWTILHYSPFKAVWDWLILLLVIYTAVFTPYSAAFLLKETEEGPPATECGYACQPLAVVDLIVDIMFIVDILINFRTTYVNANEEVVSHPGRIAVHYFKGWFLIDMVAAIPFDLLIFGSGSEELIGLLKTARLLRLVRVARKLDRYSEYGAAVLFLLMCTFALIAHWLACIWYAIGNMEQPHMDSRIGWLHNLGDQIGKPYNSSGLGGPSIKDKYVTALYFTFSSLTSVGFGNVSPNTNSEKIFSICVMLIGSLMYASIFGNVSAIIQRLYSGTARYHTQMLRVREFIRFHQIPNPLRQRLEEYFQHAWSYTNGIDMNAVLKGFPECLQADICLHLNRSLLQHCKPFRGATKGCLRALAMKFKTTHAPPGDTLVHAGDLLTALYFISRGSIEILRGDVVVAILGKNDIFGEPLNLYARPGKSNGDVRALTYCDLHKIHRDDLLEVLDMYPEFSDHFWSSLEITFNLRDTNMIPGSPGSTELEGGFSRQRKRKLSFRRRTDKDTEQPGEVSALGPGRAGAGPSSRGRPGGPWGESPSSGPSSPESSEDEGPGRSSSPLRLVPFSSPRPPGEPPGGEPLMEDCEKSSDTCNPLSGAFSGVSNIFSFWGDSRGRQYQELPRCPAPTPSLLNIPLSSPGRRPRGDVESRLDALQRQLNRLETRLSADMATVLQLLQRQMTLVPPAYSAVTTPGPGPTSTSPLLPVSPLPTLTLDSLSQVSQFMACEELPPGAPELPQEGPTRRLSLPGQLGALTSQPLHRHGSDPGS
Assay: modulators of KCNH2 ion channel function, cellular (AID 376);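 also: 0% = buffer alone and 100% = reference blocker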
Conditions: hERG-expressing cells, channel activity single-concentration screen; concentration not given here
In all, about 2,000 compounds went through this assay and about 250 (12%) were called active. This excerpt belongs to a sample that is enriched for actives.
parameter: hERG blockade (%)
Lab book: enter the figure in %, no units written.

With Voltage-gated inwardly rectifying potassium channel KCNH2 (Homo sapiens) (UniProt Q12809) as the test system, CCC1C2Cc3ccc(O)cc3C1(CC)CCN2C (stereo not drawn) showed hERG blockade of 1.71

Voltage-gated inwardly rectifying potassium channel KCNH2 (Homo sapiens) (UniProt Q12809) data for COc1cccc2c1C(=O)c1c(O)c3c(c(O)c1C2=O)CC(O)(C(C)=NO)CC3OC1CC(N)C(O)C(C)O1 (stereo not drawn) ; its hERG blockade: 36.3

Summary line: CC(c1ccccc1)N1CCN(C(C)c2ccccc2)CC1 (stereo not drawn) , Voltage-gated inwardly rectifying potassium channel KCNH2 (Homo sapiens) (UniProt Q12809), reported hERG blockade = 2.64

Result for CN1CC(C(=O)NC2(C)OC3(O)C4CCCN4C(=O)C(Cc4ccccc4)N3C2=O)C=C2c3cccc4[nH]cc(c34)CC21 (stereo not drawn) , tested on Voltage-gated inwardly rectifying potassium channel KCNH2 (Homo sapiens) (UniProt Q12809), hERG blockade: 6.97

Measured hERG blockade for this entry CCCOC(=O)C1C2CCC(O2)C1C(=O)O (stereo not drawn) on Voltage-gated inwardly rectifying potassium channel KCNH2 (Homo sapiens) (UniProt Q12809): 8.66

hERG blockade for Voltage-gated inwardly rectifying potassium channel KCNH2 (Homo sapiens) (UniProt Q12809) with input CCOC(=O)C1C(O)CC2c3ccccc3-c3ccccc3C21 (stereo not drawn) equals -9.9

The reported Voltage-gated inwardly rectifying potassium channel KCNH2 (Homo sapiens) (UniProt Q12809) hERG blockade of CC(=O)OC1CCC2(C)C(CCC3C2CC(=O)C2(C)C3CC(N3CC3)C2C(C)=O)C1 (stereo not drawn) is 2.23

Response field hERG blockade (Voltage-gated inwardly rectifying potassium channel KCNH2 (Homo sapiens) (UniProt Q12809)) for item O=C(O)CC1OCC=C2CN3CCC45C6=CC(=O)C(=O)C([N+](=O)[O-])=C6NC4C1C2CC35 (stereo not drawn) : 13.9

With Voltage-gated inwardly rectifying potassium channel KCNH2 (Homo sapiens) (UniProt Q12809) as the test system, CC12CCC(O)CC1CCC1C2CCC2(C)C(C(=O)CC(O)C(F)(F)F)CCC12 (stereo not drawn) showed hERG blockade of -1.73

The measured hERG blockade that CC1CCC2(O)C3(C)CC4(O)OC2(C1O)C1(O)C3(O)C(OC(=O)c2ccc[nH]2)C(O)(C(C)C)C41C (stereo not drawn) showed for Voltage-gated inwardly rectifying potassium channel KCNH2 (Homo sapiens) (UniProt Q12809) is 2.45

Value sought: hERG blockade, system Voltage-gated inwardly rectifying potassium channel KCNH2 (Homo sapiens) (UniProt Q12809), item Nc1c(C(=O)Nc2ccc([As](=O)(O)O)cc2)cnc2nnnn12 . Result: 6.38

Value (hERG blockade, Voltage-gated inwardly rectifying potassium channel KCNH2 (Homo sapiens) (UniProt Q12809)) for record CS(=N)(=O)CCC(N)P(=O)(O)O (stereo not drawn) = -8.23

Bench note, Voltage-gated inwardly rectifying potassium channel KCNH2 (Homo sapiens) (UniProt Q12809): entry O.O.[NH-]C1(C(=O)O)CCCC1.[NH-]C1(C(=O)O)CCCC1.[Ni+2] , its hERG blockade = 1.76

Query O=C(O)CNCP(=O)(O)O on Voltage-gated inwardly rectifying potassium channel KCNH2 (Homo sapiens) (UniProt Q12809); hERG blockade returned: -1.2

The reported Voltage-gated inwardly rectifying potassium channel KCNH2 (Homo sapiens) (UniProt Q12809) hERG blockade of O=[As](O)(O)c1ccc(NCc2ccccc2)cc1 is -4.95

Measured on Voltage-gated inwardly rectifying potassium channel KCNH2 (Homo sapiens) (UniProt Q12809), CC12CCC(CN(CCC[N+](C)(C)C)C1)C2(C)C (stereo not drawn) has a documented hERG blockade of 4.55

Per the reported Voltage-gated inwardly rectifying potassium channel KCNH2 (Homo sapiens) (UniProt Q12809) data, CSc1ccc2c(c1)c(CCN)c(C)n2Cc1ccccc1Cl has hERG blockade of 102

hERG blockade for Voltage-gated inwardly rectifying potassium channel KCNH2 (Homo sapiens) (UniProt Q12809) with input COc1cc2c(cc1OC)C13CCN4CC5=CCOC(CC(=O)O)C(C5CC41)C3N2 (stereo not drawn) equals 2.07

hERG blockade for Voltage-gated inwardly rectifying potassium channel KCNH2 (Homo sapiens) (UniProt Q12809) with input NCCCN1CCN(c2ccccc2)CC1 equals -0.441

hERG blockade of NC(Cc1cc(Br)c(O)c(Br)c1)C(=O)O (stereo not drawn) , assay on Voltage-gated inwardly rectifying potassium channel KCNH2 (Homo sapiens) (UniProt Q12809), is 9.07

Per the reported Voltage-gated inwardly rectifying potassium channel KCNH2 (Homo sapiens) (UniProt Q12809) data, O=C(O)CC1NCc2cc3ccccc3nc21 (stereo not drawn) has hERG blockade of -11.4

Fill in: Voltage-gated inwardly rectifying potassium channel KCNH2 (Homo sapiens) (UniProt Q12809) hERG blockade for NCCSC(c1ccccc1)c1ccccc1 = 21.8

Simply: Nc1nnnn1CCO , Voltage-gated inwardly rectifying potassium channel KCNH2 (Homo sapiens) (UniProt Q12809), hERG blockade = -1.1
